The measured values listed here are drawn from ChEMBL document CHEMBL5338724.

Tested on: MIA PaCa-2
Assay: cells
Conditions: Homo sapiens, MIA PaCa-2, 72 h
Description: Antiproliferative activity against human MIA PaCa-2 cells assessed as reduction in cell viability incubated for 72 hrs by CCK-8 assay
readoutLabel: pIC50
Formally, pIC50 is defined as -log10 of the concentration c, with c in mol/L.

[ask] Annotate the compound O=c1c(O)c(-c2ccc(O)c(O)c2)oc2cc(O)cc(O)c12 with its measured pIC50.
[reply] 4.13

---

Exercise: state measured IC50 for each of the compounds provided.
Molecular target: METTL3/METTL14 (Homo sapiens)
Sequence (Q86U44 whole entry): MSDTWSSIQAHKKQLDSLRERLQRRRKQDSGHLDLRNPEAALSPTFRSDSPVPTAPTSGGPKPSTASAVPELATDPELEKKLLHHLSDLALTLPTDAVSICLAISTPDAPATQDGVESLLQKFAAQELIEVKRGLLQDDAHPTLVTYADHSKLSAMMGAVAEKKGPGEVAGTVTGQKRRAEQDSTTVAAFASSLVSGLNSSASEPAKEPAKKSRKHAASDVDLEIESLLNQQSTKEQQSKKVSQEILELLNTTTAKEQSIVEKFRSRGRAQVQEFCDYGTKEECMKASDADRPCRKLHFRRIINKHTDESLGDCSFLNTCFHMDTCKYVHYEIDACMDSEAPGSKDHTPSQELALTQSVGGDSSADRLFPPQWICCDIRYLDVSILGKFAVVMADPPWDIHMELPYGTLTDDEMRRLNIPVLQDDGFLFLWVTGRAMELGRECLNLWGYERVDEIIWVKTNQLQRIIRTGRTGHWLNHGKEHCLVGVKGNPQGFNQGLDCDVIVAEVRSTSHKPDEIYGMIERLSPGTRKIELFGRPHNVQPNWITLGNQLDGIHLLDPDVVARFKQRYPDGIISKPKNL
Sequence (Q9HCE5 whole entry, further chain): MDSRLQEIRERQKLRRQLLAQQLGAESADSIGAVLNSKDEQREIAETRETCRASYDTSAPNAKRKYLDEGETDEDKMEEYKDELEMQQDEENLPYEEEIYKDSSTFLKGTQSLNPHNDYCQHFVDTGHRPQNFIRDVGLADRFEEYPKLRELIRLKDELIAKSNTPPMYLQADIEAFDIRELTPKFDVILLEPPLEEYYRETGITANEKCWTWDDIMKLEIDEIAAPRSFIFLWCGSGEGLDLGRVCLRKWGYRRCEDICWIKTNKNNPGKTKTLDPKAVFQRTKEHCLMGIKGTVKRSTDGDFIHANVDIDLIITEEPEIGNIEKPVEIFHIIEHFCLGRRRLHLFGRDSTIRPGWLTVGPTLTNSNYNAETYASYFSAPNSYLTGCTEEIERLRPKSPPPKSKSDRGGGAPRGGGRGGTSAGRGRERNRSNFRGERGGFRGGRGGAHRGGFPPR
Test: Inhibition of METTL3/METTL14 (unknown origin)
Assay type: protein-complex assay
Entry rule: numbers only, all in µM.

[ask] Give IC50 for O=C(O)c1ccccc1OCCc1cn(C(c2ccccc2)c2ccccc2)c2ccc(-c3ccccc3)cc12
[reply] 8.63

[ask] Provide only the value of recorded IC50 for O=C(O)c1ccccc1OCCc1cn(C(c2ccccc2)c2ccccc2)c2ccc(Cl)cc12
[reply] 13

[ask] Hello, please tell me recorded IC50 for this one: O=C(O)c1ccccc1OCCc1cn(-c2ccc(-c3ccc(Cl)cc3)cc2)c2ccc(-c3ccc(F)cc3)cc12
[reply] 3.13

[ask] Name the recorded IC50 of the compound listed here: Cc1c(CCOc2ccc(C(=O)O)cc2)c2cc(Cl)ccc2n1C(c1ccccc1)c1ccccc1
[reply] 17.3

[ask] Fill in reported IC50 for this entry: O=C(O)c1ccccc1OCCc1cn(C(c2ccccc2)c2ccccc2)c2ccc(-c3ccc(F)cc3)cc12
[reply] 6

[ask] Look up and report measured IC50 for this entry: O=C(O)c1ccccc1OCCc1cn(-c2ccc(-c3ccccc3)cc2)c2ccc(-c3ccc(F)cc3)cc12
[reply] 2.95

[ask] Fill in reported IC50 for this entry: O=C(O)c1ccccc1OCCc1cn(-c2cccc(-c3ccccc3)c2)c2ccc(-c3ccc(F)cc3)cc12
[reply] 2.74
